ASSAY REMARKS: Pharmacokinetic parameter half-life was determined at 5 mg/kg i.v. dose in rats
Type: ADME, organism-based
Design: dose 5 mg/kg, route intravenous
REPORTED CONDITIONS: rat, in vivo, iv
PROPERTY MEASURED: half-life (h)

In [3]: df
Out[3]:
                                   compound  reported_measurement
0  C[S+]([O-])c1ccc(-c2cc(-c3ccncc3)c(-c3ccc(F)cc3)[nH]2)cc1 (stereo unspecified)                  1.06

###

TEST TARGET: Mitogen-activated protein kinase 9 (Homo sapiens)
Sequence (P45984 whole entry): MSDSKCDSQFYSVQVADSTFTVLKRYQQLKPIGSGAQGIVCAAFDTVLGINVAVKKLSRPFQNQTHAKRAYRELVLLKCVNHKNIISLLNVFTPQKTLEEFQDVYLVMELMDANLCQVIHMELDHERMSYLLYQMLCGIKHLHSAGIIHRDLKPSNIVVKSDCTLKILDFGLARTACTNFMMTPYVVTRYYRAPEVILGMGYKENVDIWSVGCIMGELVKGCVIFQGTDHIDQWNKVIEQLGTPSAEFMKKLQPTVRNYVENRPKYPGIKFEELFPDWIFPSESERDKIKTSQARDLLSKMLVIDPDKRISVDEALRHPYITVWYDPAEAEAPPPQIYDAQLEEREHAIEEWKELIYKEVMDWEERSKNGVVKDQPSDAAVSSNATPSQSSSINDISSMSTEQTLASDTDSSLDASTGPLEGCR
ASSAY REMARKS: Inhibition of c-Jun N-terminal kinase 2-beta 1
pIC50: −log10 of the molar value.
PROPERTY MEASURED: pIC50

In [3]: df
Out[3]:
                                   compound  reported_measurement
0  C[S+]([O-])c1ccc(-c2cc(-c3ccncc3)c(-c3ccc(F)cc3)[nH]2)cc1 (configuration not stated)                  5.82
1  CS(=O)(=O)c1ccc(-c2cc(-c3ccncc3)c(-c3ccc(F)cc3)[nH]2)cc1                  5.97

###

TEST TARGET: Mitogen-activated protein kinase 14 (Rattus norvegicus, UniProt P70618)
Sequence (P70618 whole entry): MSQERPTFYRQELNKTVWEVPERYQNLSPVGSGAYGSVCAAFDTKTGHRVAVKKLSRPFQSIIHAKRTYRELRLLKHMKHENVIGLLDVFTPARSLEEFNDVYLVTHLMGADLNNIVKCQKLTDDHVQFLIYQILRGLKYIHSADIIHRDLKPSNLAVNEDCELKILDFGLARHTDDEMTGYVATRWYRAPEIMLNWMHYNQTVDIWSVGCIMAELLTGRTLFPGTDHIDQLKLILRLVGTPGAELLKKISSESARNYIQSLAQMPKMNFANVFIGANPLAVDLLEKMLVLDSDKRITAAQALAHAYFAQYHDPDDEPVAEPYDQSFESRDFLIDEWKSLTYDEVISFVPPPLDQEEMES
ASSAY REMARKS: Inhibitory potency evaluated against rat p38 kinase
PROPERTY MEASURED: IC50 (nM)

>>> print(df.to_string())
                                   compound  property_measured  comparator  reported_measurement
0  c1ccc(-c2cc(-c3ccncc3)c(-c3ccncc3)[nH]2)cc1               IC50           =                  1220
1  Fc1ccc(-c2cc(-c3ccc(Cl)cc3)oc2-c2ccncc2)cc1               IC50           =                   530
2  CCOC(=O)c1ccc(-c2cc(-c3ccncc3)c(-c3ccccc3)[nH]2)cc1               IC50           =                   130
3  Oc1ccc(-c2[nH]c(-c3ccccc3)cc2-c2ccncc2)cc1               IC50           =                  2400
4  Nc1ccc(-c2cc(-c3ccncc3)c(-c3ccccc3)[nH]2)cc1               IC50           =                    28
5  c1ccc(-c2cc(-c3ccncc3)c(-c3ccoc3)[nH]2)cc1               IC50           =                   660
6  FC(F)(F)c1ccc(-c2[nH]c(-c3ccccc3)cc2-c2ccncc2)cc1               IC50           =                   910
7  Fc1ccc(-c2[nH]c(-c3ccc(Cl)cc3)cc2-c2ccccn2)cc1               IC50           >                 10000
8  C[S+]([O-])c1ccc(-c2cc(-c3ccncc3)c(-c3ccc(F)cc3)[nH]2)cc1 (stereo not given)               IC50           =                   5.1
9  Fc1ccc(-c2[nH]c(-c3ccccc3)cc2-c2ccncc2)cc1F               IC50           =                   4.4

Cited source: ChEMBL document CHEMBL1130598
